Just for reference, patent US10213415B2 is where these values come from.

tested.system: delta opioid receptor (NG108-15 cell membranes) (Mus musculus, UniProt P32300)
Construct: NG108-15 cell membranes were purchased from Applied Cell Sciences (Rockville, Md.); host or cells: NG108-15 cells (membranes purchased)
Sequence (P32300 whole entry): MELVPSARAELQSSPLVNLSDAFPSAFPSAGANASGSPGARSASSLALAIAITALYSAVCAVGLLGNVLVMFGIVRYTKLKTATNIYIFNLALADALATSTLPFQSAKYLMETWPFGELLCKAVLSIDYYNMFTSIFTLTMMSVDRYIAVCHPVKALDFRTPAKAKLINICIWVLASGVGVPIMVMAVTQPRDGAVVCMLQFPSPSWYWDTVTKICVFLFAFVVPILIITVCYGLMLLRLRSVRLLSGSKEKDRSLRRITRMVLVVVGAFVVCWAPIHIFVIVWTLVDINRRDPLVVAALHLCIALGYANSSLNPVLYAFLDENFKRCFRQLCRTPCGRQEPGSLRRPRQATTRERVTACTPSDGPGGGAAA
protocol.details: Delta Opioid Receptor Functional Assay: [35S]GTPγS Binding in NG108-15 Cell Membranes, Version 2
Assay type: biochemical
measurement.type: EC50

molecule | result
COc1ccc(CN(C(=O)[C@@H](N)Cc2c(C)cc(C(N)=O)cc2C)[C@@H](C)c2nc(-c3ccccc3)c[nH]2)cc1C(=O)O [Cpd 18] | > 10 µM

====

The molecules listed here are annotated with their Ki.
tested.system: human mu opioid receptor (Homo sapiens)
Construct: purchased Perkin Elmer RBHOMM400UA; host or cells: Chinese Hamster Ovary cells (recombinant expression)
Sequence (P35372 whole entry): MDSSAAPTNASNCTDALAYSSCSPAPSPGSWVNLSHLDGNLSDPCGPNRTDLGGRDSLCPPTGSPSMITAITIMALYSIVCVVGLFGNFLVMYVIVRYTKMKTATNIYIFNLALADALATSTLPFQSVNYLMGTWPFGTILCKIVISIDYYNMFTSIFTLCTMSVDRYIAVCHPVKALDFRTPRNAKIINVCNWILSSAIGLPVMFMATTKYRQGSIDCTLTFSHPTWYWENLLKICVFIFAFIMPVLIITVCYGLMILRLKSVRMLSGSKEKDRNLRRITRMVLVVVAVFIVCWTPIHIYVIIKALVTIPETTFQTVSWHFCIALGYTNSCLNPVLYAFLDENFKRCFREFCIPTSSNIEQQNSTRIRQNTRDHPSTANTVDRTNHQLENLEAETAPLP
protocol.details: Human Mu Opioid Receptor Binding Assay (CHO membranes, 3H-Damgo)
details: read-out: hKi μ
measurement.type: Ki (nM)

molecule | value.comparator | result.number
Cc1cc(O)cc(C)c1C[C@H](N)C(=O)N(Cc1nc(-c2cccc(C(=O)O)c2)c(C)[nH]1)C(C)C [Cpd 133] | = | 11.5
Cc1cc(O)cc(C)c1C[C@H](N)C(=O)N(C)Cc1nc(-c2ccccc2)c[nH]1 [Cpd 199] | = | 0.29
Cc1cc(O)cc(C)c1C[C@H](N)C(=O)N(C(C)C)[C@H](C)c1nc(-c2ccc(F)cc2)c[nH]1 [Cpd 82] | = | 2.39
COc1cccc(-c2nc(CN(C(=O)[C@@H](N)Cc3c(C)cc(O)cc3C)C(C)C)[nH]c2C)c1 [Cpd 142] | = | 8.2
Cc1cc(C(N)=O)cc(C)c1C[C@H](N)C(=O)N(Cc1ccccc1)[C@@H](C)c1nc(-c2ccccc2)c[nH]1 [Cpd 114] | = | 1.39
Cc1cc(O)cc(C)c1C[C@H](N)C(=O)N(Cc1c(Cl)cccc1Cl)[C@@H](C)c1nc(-c2ccccc2)c[nH]1 [Cpd 97] | = | 19.2
Cc1cc(C(N)=O)cc(C)c1C[C@H](N)C(=O)N(CCCc1ccccc1)[C@@H](C)c1nc(-c2ccccc2)c[nH]1 [Cpd 108] | = | 23.5
COC(=O)c1ccc(CN(C(=O)[C@@H](N)Cc2c(C)cc(O)cc2C)[C@@H](C)c2nc(-c3ccccc3)c[nH]2)cc1 [Cpd 89] | = | 9.2
CN[C@@H](Cc1ccc(O)cc1)C(=O)N(Cc1ccc(OC)c(C(=O)O)c1)[C@@H](C)c1nc(-c2ccccc2)c[nH]1 [Cpd 262] | = | 3.24
Cc1cc(C(N)=O)cc(C)c1C[C@H](N)C(=O)N(Cc1ccccc1Br)[C@@H](C)c1nc(-c2ccccc2)c[nH]1 [Cpd 3] | = | 13
C[C@H](NC(=O)[C@@H](N)Cc1ccc(O)cc1)c1nc(-c2ccccc2)c[nH]1 [Cpd 213] | > | 1000
Cc1cc(O)cc(C)c1C[C@H](N)C(=O)N(Cc1ccc(O)c(O)c1)[C@@H](C)c1nc(-c2ccccc2)c[nH]1 [Cpd 15] | = | 285
Cc1cc(O)cc(C)c1C[C@H](N)C(=O)N(C(C)C)[C@H](c1nc(-c2ccccc2)c[nH]1)C(C)C [Cpd 162] | = | 7.6
Cc1cc(O)cc(C)c1C[C@H](N)C(=O)N(Cc1ccccc1)[C@H](c1nc(-c2ccccc2)c[nH]1)C(C)C [Cpd 106] | = | 150
Cc1cc(O)cc(C)c1C[C@H](N)C(=O)N(Cc1nc(-c2cccc(S(C)(=O)=O)c2)c(C)[nH]1)C(C)C [Cpd 72] | = | 1.03
Cc1cc(O)cc(C)c1C[C@H](N)C(=O)N(Cc1nc(-c2ccc(-c3ccccc3)cc2)c(C)[nH]1)C(C)C [Cpd 115] | = | 68
CN(Cc1nc(-c2ccccc2)c[nH]1)C(=O)[C@@H](N)Cc1ccc(O)cc1 [Cpd 198] | = | 140
Cc1cc(O)cc(C)c1C[C@H](N)C(=O)N(Cc1nc(-c2cccnc2)c(C)[nH]1)C(C)C [Cpd 124] | = | 1.7
Cc1cc(O)cc(C)c1C[C@H](N)C(=O)N(Cc1nc(-c2ccc(OC(F)(F)F)cc2)c(C)[nH]1)C(C)C [Cpd 44] | = | 8.7
COC(=O)c1cccc(CN(C(=O)[C@@H](N)Cc2c(C)cc(C(N)=O)cc2C)[C@@H](C)c2nc(-c3ccccc3)c[nH]2)c1 [Cpd 9] | = | 10.9
